- test protocol: Cytotoxicity against human drug-resistant K562/ADR cells expressing high levels of P-glycoprotein assessed as reduction in cell viability incubated for 48 hrs by SRB assay
- Format: functional, cell-based
Listing of recorded IC50 by entry.
Provide only the numeric value, understood in µM.

Some compounds with recorded IC50:
INSERT INTO measurements (smiles_structure, experimental_result) VALUES
  ('CCN(CC)CCCn1c(=O)/c(=C/c2cc(OC)c(OC)c(OC)c2)s/c1=C1\C(=O)Nc2ccccc21', 6.65),
  ('CCN(CC)CCCn1c(=O)/c(=C/c2ccc3c(c2)OCO3)s/c1=C1/C(=O)Nc2ccc(Cl)cc21', 5.05),
  ('Cc1ccc2c(c1)/C(=c1\s/c(=C\c3ccc(O)cc3)c(=O)n1CCN(C)C)C(=O)N2', 6.8),
  ('CN(C)CCn1c(=O)/c(=C/c2ccc(O)cc2)s/c1=C1\C(=O)Nc2ccc(F)cc21', 6.14),
  ('CCN(CC)CCCn1c(=O)/c(=C/c2ccc3c(c2)OCO3)s/c1=C1/C(=O)Nc2cc(F)ccc21', 2.98),
  ('CCN(CC)CCCn1c(=O)/c(=C/c2cc(OC)c(OC)c(OC)c2)s/c1=C1/C(=O)Nc2ccccc21', 6.65);

Now take the following compound into account.
State the recorded IC50 for this entry: CCN(CC)CCCn1c(=O)/c(=C/c2cc(OC)c(OC)c(OC)c2)s/c1=C1\C(=O)Nc2cc(F)ccc21 1.64

* * *

Attribute: IC50
- test protocol: Cytotoxicity against human drug-resistant K562/ADR cells expressing high levels of P-glycoprotein assessed as reduction in cell viability incubated for 48 hrs by SRB assay
- Type: functional, cell-based
Respond numerically; units are µM and should not be typed.

These solved cases illustrate the format of a correct answer.
INSERT INTO results (smiles_structure, experimental_readout, experimental_result) VALUES
  ('CCN(CC)CCCn1c(=O)/c(=C/c2ccccc2O)s/c1=C1\C(=O)Nc2ccc(C)cc21', 'IC50', 30.6),
  ('CCN(CC)CCCn1c(=O)/c(=C/c2ccc(O)cc2)s/c1=C1/C(=O)Nc2ccc(Cl)cc21', 'IC50', 48.8),
  ('CCN(CC)CCCn1c(=O)/c(=C/c2ccc(F)c(F)c2)s/c1=C1/C(=O)Nc2ccc(F)cc21', 'IC50', 6.48),
  ('CCN(CC)CCCn1c(=O)/c(=C/c2ccc3c(c2)OCO3)s/c1=C1\C(=O)Nc2ccc(F)cc21', 'IC50', 12.5);

For the next question, use this compound.
# input compound: CCN(CC)CCCn1c(=O)/c(=C/c2cc(OC)c(OC)c(OC)c2)s/c1=C1\C(=O)Nc2ccc(C)cc21 ; wanted: its IC50 2.02

* * *

- target entity: ATP-dependent translocase ABCB1 (Homo sapiens)
- Sequence (P08183 whole entry): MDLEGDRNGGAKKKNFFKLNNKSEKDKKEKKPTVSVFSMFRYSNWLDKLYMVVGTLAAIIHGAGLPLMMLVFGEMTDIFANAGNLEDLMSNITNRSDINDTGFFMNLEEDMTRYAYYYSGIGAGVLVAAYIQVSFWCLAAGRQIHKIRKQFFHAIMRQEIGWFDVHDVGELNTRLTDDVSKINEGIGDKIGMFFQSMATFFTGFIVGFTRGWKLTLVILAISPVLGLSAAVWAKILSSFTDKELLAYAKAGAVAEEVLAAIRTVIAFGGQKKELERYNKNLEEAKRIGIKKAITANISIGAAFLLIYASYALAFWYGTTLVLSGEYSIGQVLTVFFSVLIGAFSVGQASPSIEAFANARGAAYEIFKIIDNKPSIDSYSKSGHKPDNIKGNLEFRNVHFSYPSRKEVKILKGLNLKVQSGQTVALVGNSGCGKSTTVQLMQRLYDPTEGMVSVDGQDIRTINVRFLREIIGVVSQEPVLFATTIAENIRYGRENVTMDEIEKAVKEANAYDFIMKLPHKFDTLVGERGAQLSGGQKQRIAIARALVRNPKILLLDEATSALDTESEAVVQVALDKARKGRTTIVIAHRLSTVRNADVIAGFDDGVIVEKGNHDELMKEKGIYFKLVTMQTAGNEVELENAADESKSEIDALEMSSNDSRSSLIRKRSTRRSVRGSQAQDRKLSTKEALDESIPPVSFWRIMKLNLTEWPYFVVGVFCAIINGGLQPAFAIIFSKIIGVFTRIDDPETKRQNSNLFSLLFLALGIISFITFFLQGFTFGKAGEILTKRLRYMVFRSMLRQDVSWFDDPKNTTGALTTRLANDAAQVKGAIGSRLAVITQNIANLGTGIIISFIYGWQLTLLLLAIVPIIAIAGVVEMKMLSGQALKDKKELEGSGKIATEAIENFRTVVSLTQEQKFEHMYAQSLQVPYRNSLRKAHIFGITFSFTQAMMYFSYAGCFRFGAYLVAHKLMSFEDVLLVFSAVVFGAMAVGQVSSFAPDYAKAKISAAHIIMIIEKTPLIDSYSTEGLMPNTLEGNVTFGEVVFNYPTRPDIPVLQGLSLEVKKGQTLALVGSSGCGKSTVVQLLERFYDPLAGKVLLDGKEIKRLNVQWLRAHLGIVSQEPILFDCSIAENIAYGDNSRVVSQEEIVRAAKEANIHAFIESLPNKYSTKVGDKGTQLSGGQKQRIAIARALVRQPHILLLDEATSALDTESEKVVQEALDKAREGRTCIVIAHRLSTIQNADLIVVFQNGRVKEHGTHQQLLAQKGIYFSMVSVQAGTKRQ
- test protocol: Inhibition of P-glycoprotein in human drug-resistant K562/ADR cells assessed as reduction in P-gp mediated rhodamine 123 efflux by spectrofluorometry
experimental readout: Ki

Here's what some known entries look like.
INSERT INTO results (smiles_structure, experimental_result) VALUES
  ('Cc1ccc2c(c1)/C(=c1\s/c(=C\c3ccc(O)cc3)c(=O)n1CCN(C)C)C(=O)N2', '> 2230 nM'),
  ('CCN(CC)CCCn1c(=O)/c(=C/c2ccc3c(c2)OCO3)s/c1=C1\C(=O)Nc2ccccc21', '480 nM'),
  ('CN(C)CCn1c(=O)/c(=C/c2ccc(O)cc2)s/c1=C1\C(=O)Nc2cc(F)ccc21', '> 2230 nM'),
  ('CN(C)CCn1c(=O)/c(=C/c2ccc(O)cc2)s/c1=C1/C(=O)Nc2ccccc21', '> 2230 nM');

Turning now to a further record.
Notebook entry, ATP-dependent translocase ABCB1 (Homo sapiens) assay: Ki of CCN(CC)CCCn1c(=O)/c(=C/c2ccc(F)c(F)c2)s/c1=C1\C(=O)Nc2ccc(F)cc21 = ? > 2230 nM

Reference source: ChEMBL document CHEMBL3612003
